# TEST_SYSTEM: T1, zebrafish Tac3rb (tac3 receptor b, NKB receptor) (zebrafish)
# T1 chain: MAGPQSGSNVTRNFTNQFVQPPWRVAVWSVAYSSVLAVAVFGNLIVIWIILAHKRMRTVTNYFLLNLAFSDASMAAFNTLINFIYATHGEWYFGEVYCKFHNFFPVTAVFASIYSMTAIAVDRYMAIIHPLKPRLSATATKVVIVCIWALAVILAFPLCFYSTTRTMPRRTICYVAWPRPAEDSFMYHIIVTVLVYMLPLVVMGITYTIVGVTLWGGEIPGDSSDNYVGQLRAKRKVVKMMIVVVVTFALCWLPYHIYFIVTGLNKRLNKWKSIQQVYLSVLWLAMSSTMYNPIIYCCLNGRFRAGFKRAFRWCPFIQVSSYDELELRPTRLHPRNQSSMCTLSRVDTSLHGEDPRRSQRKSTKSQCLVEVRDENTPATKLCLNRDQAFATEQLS
# ASSAY_COMMENT: cell-based or functional assay
*1 amine or outer side, *2 acyl side, *3 side chain or, on linkers, in order; H or OH if unused. Where no end group is shown, it is not given here. [ ]: non-standard residue; d: D form. NMeF = CN[C@@H](Cc1ccccc1)C(=O)O; Suc = O=C(CCC(=O)[*:2])[*:1]
REPORTED_METRIC: EC50, CRE-Luc reporter (PKA activation), transfected COS-7 cells (nM)

A: EMHDIFVGLM-NH2 [Zebrafish Tac3a peptide, neurokinin Ba (EMHDIFVGLM-NH2)]
B: STGINREAHLPFRPNMNDIFVGLL-NH2 [Zebrafish Tac3b peptide, neurokinin Bb (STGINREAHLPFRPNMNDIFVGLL-NH2)]
C: DMHDFFVGLM-NH2 [human NKB (neurokinin B)]
D: Suc-DF[NMeF]GLM-NH2 [Senktide (Succ-Asp-Phe-N(Me)Phe-Gly-Leu-Met-NH2)]
E: YNDIDYDSFVGLM-NH2 [Zebrafish Tac3f peptide, neurokinin F (YNDIDYDSFVGLM-NH2)]
Let's sort these by EC50, CRE-Luc reporter (PKA activation), transfected COS-7 cells, smallest first. Go ahead? // rank by listing labels in the order requested E, A, C, D, B
